Numbers sourced from patent US20130109846A1.

target: human CD28 (human, UniProt P10747 19-220); assay: cell-based or functional assay
property.measured: Luciferase assay (EC50) (µM)

A: 1h-99-267 (other) VH: EVQLLESGGGLVQPGGSLRLSCAASGFTFYRSNMSWVRQAPGKGLEWVSWIEASGVQTFYADSVKGRFTISRDNSKNTLYLQMNSLRAEDTAVYYCAKSPFGPLYGFDYRGQGTLVTVSS
B: 1h-239-9 (other) VL: DIQMTQSPSSLSASVGDRVTITCRASQSIYPFLEWYQQKPGKAPKLLIYFTSRLQSGVPSRFSGSGSGTDFTLTISSLQPEDFATYYCLQNVTNPATFGQGTKVEIKR
Exercise: Which value of Luciferase assay (EC50) is numerically greater: that of A or that of B ? When you have decided, please share the label of that item.
Key: B
